# EXPERIMENT_NOTES: Lipid nanoparticle size by dynamic light scattering (Malvern Zetasizer Nano ZS)
# Type: physicochemical
# EXPERIMENTAL_CONTEXT: LNP: cationic lipid/DSPC/cholesterol/PEG-lipid 50:10:38.5:1.5, hEPO mRNA; Table 3
MEASUREMENT_LABEL: polydispersity
Give the figure by itself; no unit, no explanation.

Solved entries (count: 3):
COMPOUND: CCCCCCCCC(CCCCCC)CC(=O)NCCCCCN(CCCCCOC(=O)CC(CCCCCC)CCCCCCCC)CCN(CCO)C1CCCCC1 (stereo not shown)
polydispersity: 0.064
//
COMPOUND: CCCCCCCCC(CCCCCCCC)COC(=O)CCCCCN(CCCCCC(=O)OCC(CCCCCCCC)CCCCCCCC)CCN(CCC)C1CCCCC1O (stereo not shown)
polydispersity: 0.06
//
COMPOUND: CCCCCCCCC(CCCCCC)COC(=O)CCCCCN(CCCCCC(=O)OCC(CCCCCC)CCCCCCCC)CCN(CCC)C1CCC(O)CC1 (stereo not shown)
polydispersity: 0.07

Now, please, on to the next compound.
Q) # lookup: polydispersity of "CCCCCCC(CCCCCC)CC(=O)NCCCCCN(CCCCCOC(=O)CC(CCCCCC)CCCCCC)CCN(CCO)C1CCCC1"
A) 0.068
